Source listed as patent US8658604B2.

# System: Tryptase, from human lung
# protocol: Enzymatic assay, tryptase
# testSettings: at 100 μM
Where a SMILES comes first, the peptide text is derived from it.
measuredParameter: Tryptase At 100 μM % (%)

compound: CCCCCCCC[C@@H]1NC(=O)[C@@H]2CCCN2C(=O)[C@H]2CCCN2C(=O)[C@H](Cc2ccc(O)cc2)NC(=O)[C@H](CCCCN)NC(=O)[C@H](CCC(N)=O)NC(=O)[C@@H]2CCCN2C(=O)[C@@H]2CCCN2C(=O)[C@H]([C@@H](C)CC)NC(=O)[C@H](CO)NC(=O)[C@H](C)NC(=O)[C@H]([C@@H](C)O)NC(=O)[C@H](CCC(=O)O)NC1=O [Ex. 156] (HELM PEPTIDE1{[CCCCCCCC[C@H](N[*:1])C(=O)[*:2]].E.T.A.S.I.P.P.Q.K.Y.[dP].P}$PEPTIDE1,PEPTIDE1,1:R1-13:R2$$$V2.0)
unit: %
recordedNumber: 15

###

# Tested on: human red blood cells (hRBC)
# protocol: Hemolysis
Where a SMILES comes first, the peptide text is derived from it.

molecule: CCCC[C@@H]1NC(=O)[C@H]([C@@H](C)O)NC(=O)[C@@H]2CSSC[C@H](NC(=O)[C@H]([C@@H](C)CC)NC(=O)[C@@H]3CCCN3C(=O)[C@@H]3CCCN3C(=O)[C@H](CC(=O)O)NC(=O)[C@H](CO)NC1=O)C(=O)N[C@@H](CCCNC(=N)N)C(=O)N1CCC[C@@H]1C(=O)N1CCC[C@H]1C(=O)N[C@@H]([C@@H](C)CC)C(=O)N2 [Ex. 59] (HELM PEPTIDE1{I.C.T.[Nle].S.D.P.P.I.C.R.[dP].P}$PEPTIDE1,PEPTIDE1,2:R3-10:R3|PEPTIDE1,PEPTIDE1,1:R1-13:R2$$$V2.0)
Hemolysis at 100 μM %, %: 0
--
molecule: CC[C@H](C)[C@@H]1NC(=O)[C@@H]2CCCN2C(=O)[C@@H]2CCCN2C(=O)[C@H](CC(=O)O)NC(=O)[C@H](CO)NC(=O)[C@H](CCCCN)NC(=O)[C@H]([C@@H](C)O)NC(=O)[C@@H]2CSSC[C@H](NC1=O)C(=O)N[C@@H](Cc1ccc(O)cc1)C(=O)N1CCC[C@@H]1C(=O)N1CCC[C@H]1C(=O)N[C@@H](Cc1ccccc1)C(=O)N2 [Ex. 5] (HELM PEPTIDE1{F.C.T.K.S.D.P.P.I.C.Y.[dP].P}$PEPTIDE1,PEPTIDE1,2:R3-10:R3|PEPTIDE1,PEPTIDE1,1:R1-13:R2$$$V2.0)
Hemolysis at 100 μM %, %: 0

###

# Test system: Tryptase, from human lung
# protocol: Enzymatic assay, tryptase
# testSettings: at 100 μM
Where a SMILES comes first, the peptide text is derived from it.
measuredParameter: Tryptase at 100 μM % (%)

molecule: CC[C@H](C)[C@@H]1NC(=O)[C@@H]2CCCN2C(=O)[C@@H]2CCCN2C(=O)[C@H](CC(=O)O)NC(=O)[C@H](CO)NC(=O)[C@H](CCCCN)NC(=O)[C@H]([C@@H](C)O)NC(=O)[C@@H]2CSSC[C@H](NC1=O)C(=O)N[C@@H](CO)C(=O)N[C@H](C)C(=O)N[C@@H](CC(=O)O)C(=O)N[C@@H](Cc1ccccc1)C(=O)N2 [Ex. 68] (HELM PEPTIDE1{F.C.T.K.S.D.P.P.I.C.S.[dA].D}$PEPTIDE1,PEPTIDE1,2:R3-10:R3|PEPTIDE1,PEPTIDE1,1:R1-13:R2$$$V2.0)
recordedNumber: 21.3
